Each recorded value in this set is attributed to patent US20170362324A1.

# IC50 annotations
- SUBJECT_OF_TEST: T1, human soluble αvβ5 protein (extracellular domains of human αv and β5 integrin subunits) (human, UniProt P06756 31-992; P18084 24-719)
- T1 construct: also called biotin-αvβ5; hsαvβ5
- METHOD: competition ELISA against 1 nM murine ALULA on coated soluble human αvβ5
Quick reminder: number only, in nM, skip the unit.

Query block: I am curious: what IC50 value has been reported for VH3/VL2 Agly-hIgG1(T299A) (antibody, V domains shown, also called H3/L2) VH: EVQVVESGGGLVKPGGSLRLSCKASGYTFTSYWMHWVKQAPGKGLEWVGAIYPGNSDTSYNQKFKGKFTLSAVTSSNTAYLQMNSLKTEDTAVYYCTTTTYGYDWFAYWGQGTLVTVSS VL: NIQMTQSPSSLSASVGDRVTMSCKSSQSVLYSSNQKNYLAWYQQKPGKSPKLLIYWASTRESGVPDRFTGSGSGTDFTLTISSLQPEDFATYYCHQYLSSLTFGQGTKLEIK ?
Result block: 3.3

Query block: I am curious: what IC50 value has been reported for VH4/VL0 Agly-hIgG1(T299A) (antibody, V domains shown, also called H4/L0 (Agly-IgG1)) VH: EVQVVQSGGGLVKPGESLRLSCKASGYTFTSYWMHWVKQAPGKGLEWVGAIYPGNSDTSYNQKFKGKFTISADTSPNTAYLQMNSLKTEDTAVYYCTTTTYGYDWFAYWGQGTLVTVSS VL: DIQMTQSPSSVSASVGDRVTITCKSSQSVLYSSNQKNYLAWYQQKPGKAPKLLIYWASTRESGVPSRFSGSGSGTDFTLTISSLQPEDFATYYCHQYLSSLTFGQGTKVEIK ?
Result block: 2

Query block: I am curious: what IC50 value has been reported for VH4/VL2 Agly-hIgG1(T299A) (antibody, V domains shown, also called H4/L2 (Agly-IgG1)) VH: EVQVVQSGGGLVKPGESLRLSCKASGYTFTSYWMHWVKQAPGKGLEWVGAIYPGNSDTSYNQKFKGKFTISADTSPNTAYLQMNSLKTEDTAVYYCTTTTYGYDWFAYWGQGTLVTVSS VL: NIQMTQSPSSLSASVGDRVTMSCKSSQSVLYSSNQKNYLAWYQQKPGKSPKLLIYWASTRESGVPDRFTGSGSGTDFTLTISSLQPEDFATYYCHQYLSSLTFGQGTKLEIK ?
Result block: 1.6
